# Tested on: MS2 coat protein
# protocol_summary: apparent Kd, MS2 coat protein; higher = weaker binding; RNA-MaP array; FMN 200 µM where present
# particulars: ligand present: flavin mononucleotide; designed as: OFF switch for flavin mononucleotide
Assign criterion met to entries whose apparent Kd meets or exceeds 80 nM; assign criterion not met to the rest.

{"sequence_text": "CUGUAGAGUUAGGAUAUCGGCGCGUGAGAAGUUUGAGAAGGGACCACAUGAGGAUCACCCAUGUGUCUUCACCU", "measurement_target": "MS2 coat protein", "class": "criterion not met"}
{"sequence_text": "ACAAAACAUGAGGAUCACCCAUGUGAGGAUAUGCGAAACAAACAAACAAACAAACAAAGCAGAAGGCACAACAA", "measurement_target": "MS2 coat protein", "class": "criterion not met"}
{"sequence_text": "CCUAAACAUGAGGAUCACCCAUGUGAGGAUAUGAUGCAGCAGUGGUCUACGCUGUGCAUCAGAAGGUACAUGGU", "measurement_target": "MS2 coat protein", "class": "criterion met"}
{"sequence_text": "AAAUAAACUACCAAAAUAUCCUCACAUGAGGAUCACCCAUGUCAGGAUAUUUGUCCUAAAAGGACAGAGAAGGGACGUGGUAGA", "measurement_target": "MS2 coat protein", "class": "criterion not met"}
{"sequence_text": "CCGGAACAUGAGGAUCACCCAUGUGAGGAUAUCGUACGUUCGUCGAUAGACGAUCGUACGAGAAGGCACGCCGG", "measurement_target": "MS2 coat protein", "class": "criterion not met"}
{"sequence_text": "GUGUAGUGAGGAUAUCGUUGUUAGGAGGAGAAGGUAGGAGGCGAGAAGGCACAUGAGGAUCACCCAUGUAUGAG", "measurement_target": "MS2 coat protein", "class": "criterion not met"}
{"sequence_text": "UCAUAAAAGAUCCUAUUUAUCUACAUGAGGAUCACCCAUGUGCAGGAUAUGCUAUAUUUAAUAAAGCAGAAGGGCAAUAACCGC", "measurement_target": "MS2 coat protein", "class": "criterion met"}
{"sequence_text": "AGCUGUGGCCGAGGAUAUCUAUCCAAUAUAACCGAAAUAUAAUCGGACAUGAGGAUCACCCAUGUAGAGAAGGCGGUCUCAGCA", "measurement_target": "MS2 coat protein", "class": "criterion not met"}
{"sequence_text": "CGGUGACGUGUAGGAUAUGGCGCUGGGUUUUGGCCAGAAGGACAUGAGGAUCACCCAUGUGGUAGAGGGCUGGCGGCCGCCCGU", "measurement_target": "MS2 coat protein", "class": "criterion met"}
{"sequence_text": "CGUCAUUACUCAGGAUAUGCACCAUACUUGAGGGCAGAAGGGAGUACAUGAGGAUCACCCAUGUACUAUGGGCGCCUAAGAGGU", "measurement_target": "MS2 coat protein", "class": "criterion not met"}
{"sequence_text": "UUCUGGCUAGGAUAUACAGUGUCCACGAGUUAGUUGCCCUAACAUGAGGAUCACCCAUGUAGAAGGAGCGAGAA", "measurement_target": "MS2 coat protein", "class": "criterion met"}
{"sequence_text": "ACGACGAAAGUCGAACGAUGAUCGAGAAGGACAUGAGGAUCACCCAUGUCUGCUGUAACAGCCAUGUAGGAUAUCGAUCAUCGA", "measurement_target": "MS2 coat protein", "class": "criterion not met"}
{"sequence_text": "GAAUGGGUAGAAGGACAUGAGGAUCACCCAUGUAGUGUGACUAAGGAUAUUAGAGAAGAUUGACGUAAGAAGGUAGAUGUGAGG", "measurement_target": "MS2 coat protein", "class": "criterion met"}
{"sequence_text": "UGCCAGUUAGGAUAUGACUCGACAGACAUGAGGAUCACCCAUGUCCGAGUGUGUGUUUUUUCAGAAGGGACGGCCC", "measurement_target": "MS2 coat protein", "class": "criterion not met"}
{"sequence_text": "AAUUGAAACGUAGGAUAUCGCAAAGAUCUAGAACGAGAAGGACGUACAUGAGGAUCACCCAUGUUAAAUGGUGAAGAUUAGAUG", "measurement_target": "MS2 coat protein", "class": "criterion met"}

---

# System: MS2 coat protein
# protocol_summary: apparent Kd, MS2 coat protein; higher = weaker binding; RNA-MaP array
# particulars: ligand present: flavin mononucleotide; designed as: ON switch for flavin mononucleotide
Here, each record is paired with measured apparent Kd data.
assay_metric: apparent Kd (nM)

{"sequence_text": "ACAUGAGGAUCACCCAUGUUGUCAUAGCAACUUUACAGGAGGAGAAGGCGAGGUUGGGCUGCCCUCGAGGAUAUCCGUAGAAAA", "measurement_target": "MS2 coat protein", "result_number": 6.45}
{"sequence_text": "CUCAGCGGGCUAGGAUAUGGCCUGUGGUUUAGGCCAGAAGGAGCUCACUAAGCACAUGAGGAUCACCCAUGUCUCAAUGCCUGA", "measurement_target": "MS2 coat protein", "result_number": 8.84}
{"sequence_text": "AACUUUCCCUAGAAGGUCGUGUUACAACAUGAGGAUCACCCAUGUCGCCCUAGGGCUGCUGCCGCGAAGGAUAUAGGUCCGGAG", "measurement_target": "MS2 coat protein", "result_number": 5.32}
{"sequence_text": "GCAAAAGCGCUCUAGAGACAUGAGGAUCACCCAUGUGUGGGUAGAAGGUCCUACGUACCAUUAAGGAAGGAUAUACACAUAUAU", "measurement_target": "MS2 coat protein", "result_number": 540}

---

Here, each record is paired with measured apparent Kd data.
# Test system: MS2 coat protein
# protocol_summary: apparent Kd, MS2 coat protein; higher = weaker binding; RNA-MaP array
# particulars: designed as: OFF switch for flavin mononucleotide; no ligand

{"sequence_text": "UCAAGCAUGGAGAAGGCCCGGGUUGACACGUCGGGAGGAUAUCCAGACUCACAUGAGGAUCACCCAUGUUAUUGCGGCGACUCC", "apparent Kd": "40.3 nM"}
{"sequence_text": "AUGUUCCGUUAGAAGGUGUUGAGUGGAGGCUCACAAGGAUAUAACUUCCUCGUCGAUGACAUGAGGAUCACCCAUGUAGCACAA", "apparent Kd": "50.3 nM"}
{"sequence_text": "UAAGACGCAGGAUAUACAUGAGGAUCACCCAUGUGCAUACAAGUCAAGAGGUACAUAAGUAGAAGGGCGUGGAU", "apparent Kd": "9.42 nM"}
{"sequence_text": "GGUUAACAUGAGGAUCACCCAUGUUAGGAUAUGCUACAGAGUCUGGUCCCUGGAAAUGGCAGAAGGAACGUGUU", "apparent Kd": "17.2 nM"}
{"sequence_text": "CCAGAAGCAGGAUAUACAUGAGGAUCACCCAUGUUAAACAAUAUGACGAGCAUAGUCAGUAGAAGGGCAACUCA", "apparent Kd": "18.8 nM"}
{"sequence_text": "GACGUCGCCUUAGGAUAUGCCCAUUACAUGAGGAUCACCCAUGUUUCUUAAAGAGGAUCCGCAUGGCAGAAGGAAGGUCUCCAC", "apparent Kd": "25.4 nM"}
{"sequence_text": "AUGAACAACCAGAAGGCAACGUUGGCCCAAGUUUGAGGAUAUGGACGUGGAAGUUCGCACAUGAGGAUCACCCAUGUAGAUCAG", "apparent Kd": "14 nM"}
{"sequence_text": "UACGGUCAUAGAGGAUAUAGAUCGCGCAACGGUUUCGUGGCCCACAUGAGGAUCACCCAUGUUAUCUAGAAGGCUAUGAGUCGC", "apparent Kd": "6.82 nM"}
{"sequence_text": "GCCAUGUAAGGAUAUCUUAACUUGCAUCACGCGCGGAAUGGAGAGAAGGUACAUGAGGAUCACCCAUGUGAAAA", "apparent Kd": "19.8 nM"}
{"sequence_text": "AGCGUGUAAGGAUAUUGAUCUCCACUUCUGUAGGUCGGUGACAAGAAGGUACAUGAGGAUCACCCAUGUCCAUG", "apparent Kd": "19.8 nM"}
{"sequence_text": "GUCAUUCUCAACAUGAGGAUCACCCAUGUCGGUUAUCUGGGCUAGGAUAUCACGAUGCCACUGCGUGAGAAGGAGCGUUCGAUA", "apparent Kd": "67.3 nM"}
{"sequence_text": "CGACAUUAAACAUGAGGAUCACCCAUGUGACCCUAUUGUCCAAAGGAUAUCUUAUGAAUAGAGAAAGAGAAGGUUGUAUUCCCA", "apparent Kd": "241 nM"}
{"sequence_text": "AAAGGUCAGGAGAAGGUGCCUCUAUUACGUCGGCAAGGAUAUCCACAGCGGGCGAUUAUGCGUACAUGAGGAUCACCCAUGUUA", "apparent Kd": "92.3 nM"}
{"sequence_text": "GUUGGAUUUGUGAGGAUAUGGCCGUGACAUUUGGACCAGAAGGCACAUGAGGAUCACCCAUGUAUUGAAGAACG", "apparent Kd": "23.3 nM"}
{"sequence_text": "GAGACAGGGCAGAAGGUUCUAAACGGCUAAAUGAAAGGAUAUGCAAACAUUGACAUGAGGAUCACCCAUGUGUUAAAAGCUACG", "apparent Kd": "12.1 nM"}

Reference source for all entries: the EternaBench riboswitch data
